- Organism: Homo sapiens
- procedure details: Selectivity ratio of IC50 for adrenergic alpha1B receptor (unknown origin) to IC50 for adrenergic alpha1D receptor (unknown origin)
# note: exactly 6 is not below, so it is Criterion not met; use Criterion met for Ratio IC50 strictly under it

>  <compound structure>
O=C1c2ccccc2C(=O)N1Cc1ccc(CCN2CCN(c3ccc(F)cc3)CC2)cc1

>  <assigned label>
Criterion met

$$$$
>  <compound structure>
O=C1c2ccccc2C(=O)N1Cc1ccc(CCN2CCN(c3ccccc3)CC2)cc1

>  <assigned label>
Criterion met

$$$$
>  <compound structure>
O=C1c2ccccc2C(=O)N1Cc1ccc(CCN2CCN(c3ccc(Cl)cc3)CC2)cc1

>  <assigned label>
Criterion not met

$$$$
>  <compound structure>
CS(=O)(=O)c1ccccc1N1CCN(CCc2ccc(CN3C(=O)c4ccccc4C3=O)cc2)CC1

>  <assigned label>
Criterion not met

$$$$
>  <compound structure>
O=C1c2ccccc2C(=O)N1Cc1ccc(CCN2CCN(c3ccccc3Cl)CC2)cc1

>  <assigned label>
Criterion not met

$$$$

Regarding Cc1ccccc1N1CCN(CCc2ccc(CN3C(=O)c4ccccc4C3=O)cc2)CC1 , kindly confirm whether its Ratio IC50 is beneath 6. Criterion met

Regarding N#Cc1ccc(N2CCN(CCc3ccc(CN4C(=O)c5ccccc5C4=O)cc3)CC2)cc1 , kindly confirm whether its Ratio IC50 is beneath 6. Criterion not met

Regarding CC(=O)c1ccc(N2CCN(CCc3ccc(CN4C(=O)c5ccccc5C4=O)cc3)CC2)cc1 , kindly confirm whether its Ratio IC50 is beneath 6. Criterion met

Regarding O=C1c2ccccc2C(=O)N1Cc1ccc(CCN2CCN(c3ccccn3)CC2)cc1 , kindly confirm whether its Ratio IC50 is beneath 6. Criterion met

Regarding O=C1c2ccccc2C(=O)N1Cc1ccc(CCN2CCN(c3ccccc3F)CC2)cc1 , kindly confirm whether its Ratio IC50 is beneath 6. Criterion met

Regarding COc1ccccc1N1CCN(CCc2ccc(CN3C(=O)c4ccccc4C3=O)cc2)CC1 , kindly confirm whether its Ratio IC50 is beneath 6. Criterion met

Regarding Cc1ccc(N2CCN(CCc3ccc(CN4C(=O)c5ccccc5C4=O)cc3)CC2)cc1 , kindly confirm whether its Ratio IC50 is beneath 6. Criterion met

The reported numbers originate from ChEMBL document CHEMBL3739328.
